Recorded cAMP activity, Glcg EC50 nM values for a group of binders are listed next.
Target: human glucagon receptor (GCGR) (human, UniProt P47871 26-477)
Sequence (P47871 26-477): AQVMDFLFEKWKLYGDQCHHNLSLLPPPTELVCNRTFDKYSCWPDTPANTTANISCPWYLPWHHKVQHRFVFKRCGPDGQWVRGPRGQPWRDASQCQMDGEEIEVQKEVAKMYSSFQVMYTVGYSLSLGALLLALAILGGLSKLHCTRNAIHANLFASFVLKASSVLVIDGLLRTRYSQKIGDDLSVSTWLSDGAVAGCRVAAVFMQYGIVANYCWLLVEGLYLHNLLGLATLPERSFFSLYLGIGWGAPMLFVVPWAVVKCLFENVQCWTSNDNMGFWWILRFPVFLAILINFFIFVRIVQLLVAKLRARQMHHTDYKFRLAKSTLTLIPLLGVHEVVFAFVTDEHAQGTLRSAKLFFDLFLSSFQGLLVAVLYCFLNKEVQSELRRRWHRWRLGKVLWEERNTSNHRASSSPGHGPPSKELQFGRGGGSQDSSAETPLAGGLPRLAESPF
Assay: cell-based or functional assay
Primed or numbered codes have the meaning given here. Where no end group is shown, it is not given here. Side-chain parts run from the residue outwards. [ ]: non-standard residue; d: D form. The star is where a group is joined. PEG4′ = 4 PEG units (K(PEGxpalm): Lys with x PEG units and palmitoyl at epsilon N, C-terminal (PEG)4); Palmitoyl = CCCCCCCCCCCCCCCC(=O)*
Give the value, in units of nM, as a plain number.

Example binders with recorded cAMP activity, Glcg EC50 nM:
HGQGTFTSDYSKYLDSXRAQDFVQWLV (not fully specified; K(PEG4-palm) at 17; C-terminal PEG4) [g431]
0.004
HSQGTFTSDYSKYLDSRKAQDFVQWLV[PEG4′] (not fully specified (residue 18); printed as HSQGTFTSDYSKYLDSRB1AQDFVQWLVZ4) [g423]
0.004
HSQGTFTSDYSKYLDSRRAXDFVQWLV (K(PEG4-palm) at 20; C-terminal PEG4) [g457]
0.004
HGQGTFTSDYSKYLESK([PEG4′-Palmitoyl])RAQDFVQWLV[PEG4′] [g499]
0.03
HSQGTFTSDYSKYLDSRRAQDFVQWLV (C-terminal PEG2) [g355]
0.03

Query: Field request: cAMP activity, Glcg EC50 nM | item: HSQGTFTSDYSKYLDK([PEG4′-Palmitoyl])SRARDFVAWLV[PEG4′] [g972]
Reply: 0.03

Data provenance is patent US20160017016A1.
